Target Under Test: Prostacyclin receptor (Homo sapiens, UniProt P43119)
Sequence (P43119 whole entry): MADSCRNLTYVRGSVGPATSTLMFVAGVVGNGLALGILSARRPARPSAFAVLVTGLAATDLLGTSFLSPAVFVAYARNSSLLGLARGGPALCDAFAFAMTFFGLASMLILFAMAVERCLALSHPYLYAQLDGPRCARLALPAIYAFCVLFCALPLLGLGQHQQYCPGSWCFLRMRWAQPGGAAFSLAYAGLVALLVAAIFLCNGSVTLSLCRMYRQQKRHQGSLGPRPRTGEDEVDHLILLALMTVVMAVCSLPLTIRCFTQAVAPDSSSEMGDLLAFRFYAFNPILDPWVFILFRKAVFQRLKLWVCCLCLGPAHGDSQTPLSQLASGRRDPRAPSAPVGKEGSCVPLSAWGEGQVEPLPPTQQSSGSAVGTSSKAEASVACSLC
Test Name: Inhibition of cAMP formation by carbacyclin in Prostaglandin I2 receptor (IP) assay
Recorded Endpoint: IC50 (µM)

A = CC1(C)[C@H]2C[C@H](C/C=C\CCCC(=O)O)[C@@H](NC(=O)c3ccc4oc5ccccc5c4c3)[C@@H]1C2
B = O=C(O)CCC/C=C\C[C@@H]1[C@H]2CC[C@H](C2)[C@H]1NS(=O)(=O)c1ccc(-c2ccccc2)cc1
I would appreciate it if you could say which entry, A or B , has the lower IC50 value. Indicate which entry you chose by stating its label.
B

---

Target Under Test: Prostaglandin D2 receptor (Homo sapiens)
Sequence (Q13258 whole entry): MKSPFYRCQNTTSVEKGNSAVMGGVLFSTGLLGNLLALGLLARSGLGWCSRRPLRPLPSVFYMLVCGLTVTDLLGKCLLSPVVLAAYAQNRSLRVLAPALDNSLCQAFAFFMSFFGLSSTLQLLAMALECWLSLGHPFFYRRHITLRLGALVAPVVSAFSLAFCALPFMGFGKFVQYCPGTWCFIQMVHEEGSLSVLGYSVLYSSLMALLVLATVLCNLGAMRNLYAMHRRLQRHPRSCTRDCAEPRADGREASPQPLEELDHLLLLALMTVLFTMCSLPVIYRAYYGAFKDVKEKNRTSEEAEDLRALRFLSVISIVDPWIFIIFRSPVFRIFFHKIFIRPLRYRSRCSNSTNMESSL
Test Name: Inhibition of cAMP formation evoked by the prostaglandin D2 receptor in human platelets
Type: functional
pIC50: −log10 of the molar value.
Recorded Endpoint: pIC50

a = O=C(O)CCC/C=C\C[C@@H]1[C@H]2CC[C@H](C2)[C@H]1NS(=O)(=O)c1ccc2oc3ccccc3c2c1
b = CC1(C)[C@H]2C[C@H](C/C=C\CCCC(=O)O)[C@@H](NC(=O)c3ccsc3)[C@@H]1C2
Of a and b , whose reported pIC50 is numerically smaller? I would appreciate it if you answered with the label of your choice.
a

---

Target Under Test: UniProt:P43119
Test Name: Inhibition of cAMP formation by carbacyclin in Prostaglandin I2 receptor (IP) assay
Recorded Endpoint: IC50 (µM)

O=C(O)CCC/C=C\C[C@H]1[C@@H]2CC[C@@H](C2)[C@@H]1NS(=O)(=O)c1ccc2ccccc2c1 = 3.3
COc1cc2c(cc1S(=O)(=O)N[C@@H]1[C@@H]3CC[C@@H](C3)[C@H]1C/C=C\CCCC(=O)O)oc1ccccc12 = 5.9

P = CC1(C)[C@H]2C[C@H](C/C=C\CCCC(=O)O)[C@@H](NS(=O)(=O)c3ccc(/N=N/c4ccccc4)cc3)[C@@H]1C2
Q = O=C(O)CCC/C=C\C[C@@H]1[C@H]2CC[C@H](C2)[C@H]1NS(=O)(=O)c1ccc2oc3ccccc3c2c1
Between the entries labeled P and Q , whose measured IC50 is lower? Please reply using the label of the selected record.
Q
(Q: 1.5 µM, P: 3.4 µM)

---

Target Under Test: Prostaglandin D2 receptor (Homo sapiens)
Test Name: Inhibition of cAMP formation evoked by the prostaglandin D2 receptor in human platelets
Format: functional
Recorded Endpoint: IC50 (nM)

Use the examples below as a reference point.
O=C(O)CCC/C=C\C[C@@H]1[C@H]2CC[C@H](C2)[C@H]1NS(=O)(=O)c1ccc2ccccc2c1 = 420
CC1(C)[C@H]2C[C@H](C/C=C\CCCC(=O)O)[C@@H](NC(=O)c3ccc[nH]3)[C@@H]1C2 = 64
COc1cc2c(cc1S(=O)(=O)N[C@@H]1[C@@H]3CC[C@@H](C3)[C@H]1C/C=C\CCCC(=O)O)oc1ccccc12 = 68

A = O=C(O)CCC/C=C\C[C@@H]1[C@H]2CC[C@H](C2)[C@H]1NS(=O)(=O)c1ccc2cc(-c3ccccc3)[nH]c2c1
B = O=C(O)CCC/C=C\C[C@@H]1[C@H]2CC[C@H](C2)[C@H]1NS(=O)(=O)c1ccc(-c2ccccc2)cc1
Quick check, higher IC50 between A and B ? Refer to your chosen entry by its label in the reply.
B

---

Target Under Test: Prostacyclin receptor (Homo sapiens, UniProt P43119)
Test Name: Inhibition of cAMP formation by carbacyclin in Prostaglandin I2 receptor (IP) assay
Format: functional
Below, each entry is listed alongside its reported IC50.

Please review the entries below; each comes with its answer.
O=C(O)CCC/C=C\C[C@@H]1[C@H]2CC[C@H](C2)[C@H]1NS(=O)(=O)c1ccc2ccccc2c1 = 8.9 µM
O=C(O)CCC/C=C\C[C@@H]1[C@H]2CC[C@H](C2)[C@H]1NS(=O)(=O)c1ccc(C#Cc2ccccc2)cc1 = > 10 µM
CC1(C)[C@H]2C[C@H](C/C=C\CCCC(=O)O)[C@@H](NC(=O)c3ccccc3)[C@@H]1C2 = > 10 µM
O=C(O)CCC/C=C\C[C@@H]1[C@H]2CC[C@H](C2)[C@H]1NS(=O)(=O)c1ccc2cc(-c3ccccc3)[nH]c2c1 = > 10 µM

We next turn to a different compound, shown below.
Provide only the value of recorded IC50 for "CC1(C)[C@H]2C[C@H](C/C=C\CCCC(=O)O)[C@@H](NC(=O)c3csc4ccccc34)[C@@H]1C2"
> 10 µM
